Target: 14-3-3 protein gamma (Homo sapiens, UniProt P61981)
Sequence (P61981 whole entry): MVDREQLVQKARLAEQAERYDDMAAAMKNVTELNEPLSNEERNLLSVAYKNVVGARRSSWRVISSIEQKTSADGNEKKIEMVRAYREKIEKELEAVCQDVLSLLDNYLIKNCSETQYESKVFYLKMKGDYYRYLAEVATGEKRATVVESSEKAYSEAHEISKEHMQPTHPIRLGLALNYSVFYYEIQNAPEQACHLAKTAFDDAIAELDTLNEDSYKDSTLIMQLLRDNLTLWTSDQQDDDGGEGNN
Experiment: modulators of 14-3-3 gamma client binding – dose response (AID 711)
This section presents compounds with their documented IC50 values.

compound	IC50
Cc1ccc(C2C3CN(C(C)C)CCC3=C(C#N)C(=N)C2(C#N)C#N)cc1 (stereo not drawn)	> 50 µM

// query Fill blank: measured IC50 of the compound CC(N=O)C(=O)NCc1ccccn1 (stereo not drawn) is ____.
// result > 50 µM

// query For CC1=NC(c2ccccc2)C(C#N)(C#N)C(C#N)(C#N)C1 (stereo not drawn) then?
// result 3.15 µM
